This section presents compounds with their documented IC50 values.
# Tested on: Candida albicans
# assay-protocol: Antifungal activity against Candida albicans ATCC 90028
# Assay type: functional, organism-based
readout-name: IC50

[[record]]
given_smiles = "CC1=C(C)C(=O)C(=C(O)/C=C/c2ccccc2)C1=O"
assay_system = "Candida albicans"
readout_name = "IC50"
measured_value = "> 20 µg/mL"

[[record]]
given_smiles = "O=C1C=C(c2ccccc2)C(=O)/C1=C(O)\\C=C\\c1ccccc1"
assay_system = "Candida albicans"
readout_name = "IC50"
measured_value = "> 20 µg/mL"

[[record]]
given_smiles = "CO/C(C)=C1\\C(=O)C=C(C)C1=O"
assay_system = "Candida albicans"
readout_name = "IC50"
measured_value = "> 20 µg/mL"

[[record]]
given_smiles = "CC1=CC(=O)/C(=C(\\O)c2ccccc2)C1=O"
assay_system = "Candida albicans"
readout_name = "IC50"
measured_value = "> 20 µg/mL"

[[record]]
given_smiles = "COC(/C=C/c1ccccc1)=C1C(=O)C(C)=C(C)C1=O"
assay_system = "Candida albicans"
readout_name = "IC50"
measured_value = "> 20 µg/mL"

[[record]]
given_smiles = "COC(/C=C/c1ccc(O)cc1)=C1\\C(=O)C=C(C)C1=O"
assay_system = "Candida albicans"
readout_name = "IC50"
measured_value = "3.3 µg/mL"


###

This section presents molecules with their documented MFC values.
# Test system: Candida albicans
# assay-protocol: Antifungal activity against Candida albicans ATCC 90028
# Format: functional, organism-based
readout-name: MFC

[[record]]
given_smiles = "CC(=O)OC(/C=C/c1ccccc1)=C1\\C(=O)C=C(C)C1=O"
readout_name = "MFC"
measured_value = "> 20 µg/mL"

[[record]]
given_smiles = "COC(/C=C/c1ccccc1)=C1\\C(=O)C=C(c2ccccc2)C1=O"
readout_name = "MFC"
measured_value = "> 20 µg/mL"

[[record]]
given_smiles = "OC(Cn1cncn1)(Cn1cncn1)c1ccc(F)cc1F"
readout_name = "MFC"
measured_value = "> 200 µg/mL"

[[record]]
given_smiles = "CO/C(=C1\\C(=O)C=C(C)C1=O)c1ccccc1"
readout_name = "MFC"
measured_value = "> 20 µg/mL"

[[record]]
given_smiles = "CC1=CC(=O)/C(=C(O)/C=C/c2ccc(Cl)cc2)C1=O"
readout_name = "MFC"
measured_value = "> 20 µg/mL"


###

# Test system: Candida albicans
# assay-protocol: Antifungal activity against Candida albicans ATCC 90028
# Type: functional, organism-based
readout-name: MIC (µg/mL)

[[record]]
given_smiles = "OC(Cn1cncn1)(Cn1cncn1)c1ccc(F)cc1F"
readout_name = "MIC"
unit = "µg/mL"
inequality_operator = "="
measured_value = 0.45

[[record]]
given_smiles = "COC(/C=C/c1ccc(O)cc1)=C1\\C(=O)C=C(C)C1=O"
readout_name = "MIC"
unit = "µg/mL"
inequality_operator = "="
measured_value = 10

[[record]]
given_smiles = "CC(=O)OC(/C=C/c1ccccc1)=C1\\C(=O)C=C(C)C1=O"
readout_name = "MIC"
unit = "µg/mL"
inequality_operator = ">"
measured_value = 20

[[record]]
given_smiles = "COC(/C=C/c1cccs1)=C1\\C(=O)C=C(C)C1=O"
readout_name = "MIC"
unit = "µg/mL"
inequality_operator = "="
measured_value = 3.33

